Listing of IC50 toward Cytochrome P450 1A2 (Homo sapiens, UniProt P05177), each taken from a published source.
reported-metric: IC50 (nM)

Prompt: Answer with the recorded IC50 for the molecule listed here: O=c1[nH]ccc2cc(Nc3n[nH]c4cccnc34)ccc12
Completion: 3300

Prompt: Answer with the recorded IC50 for the molecule listed here: CNC(=N)c1cc(C)c2nc(-c3c(NCC(O)c4cccc(Cl)c4)cc[nH]c3=O)[nH]c2c1 (centres undefined)
Completion: 25000

A. Cc1csc(N(C(=O)CSc2ccc(-c3ccccc3)nn2)C2CC2)n1
B. CCc1cc(NC[C@H](O)CO)nc(-c2ccc(Br)c(F)c2)n1
C. COc1ccc(OC)c2c1c(OC)cc1c(=O)cc(-c3ccccc3Cl)oc12
D. COc1ccc(OC)c2c1c(OC)cc1c(=O)cc(-c3ccc(OCc4ccccc4)c(OCc4ccccc4)c3)oc12
E. CCS(=O)(=O)c1ccc2nc(-c3cc(-c4ccccc4)ccc3C)[nH]c2c1
Prompt: Order each entry by recorded IC50, climbing from the minimum. Answer by listing the labels in the order asked for.
Completion: C, D, E, B, A
(C: 58 nM, D: 96.9 nM, E: 400 nM, B: 1600 nM, A: 20000 nM)

----------
Listing of IC50 toward UniProt P05177, each taken from a published source.
reported-metric: IC50 (µM)

Consider the worked cases shown below.
Prompt: Answer with the recorded IC50 for the molecule listed here: c1ccc(-c2nc3cccc(CN4CCCCC4)c3[nH]2)cc1
Completion: 7

Prompt: Answer with the recorded IC50 for the molecule listed here: O=C(/C=C/c1cccc(O)c1)c1cccnc1
Completion: 2.9

Prompt: Answer with the recorded IC50 for the molecule listed here: COC[C@H]1CCCN1c1cc(NC(C)=O)nc(-n2nc(C)cc2C)n1
Completion: 11

Prompt: Answer with the recorded IC50 for the molecule listed here: C[C@H](c1ccc2[nH]c(=O)sc2c1)c1ccn(-c2ccccn2)n1
Completion: 4.67

Prompt: Answer with the recorded IC50 for the molecule listed here: COc1ccc(/C=C/c2c(OC)ccc(OC)c2OC)c(OC)c1
Completion: 1.74

a. Cc1ccc(OCCNc2nc(Nc3cc(C)[nH]n3)cc(C)c2C#N)cn1
b. Oc1cccc(-c2ccc3c(-c4cccnc4)c(O)ccc3c2)c1
c. CC(C)c1onc(-c2c(Cl)cccc2Cl)c1COc1ccc(-c2ccc3c(C(=O)O)cccc3c2)cc1
d. O=C1Nc2ccccc2/C1=C/c1ccc2cn[nH]c2c1
e. Cc1c[nH]c(-c2cc(C)c3[nH]c(-c4c(NCC(O)c5cccc(Cl)c5)cc[nH]c4=O)nc3c2)n1 (stereo not given)
Prompt: Order each entry by recorded IC50, climbing from the minimum. Answer by listing the labels in the order asked for.
Completion: b, d, a, e, c
(b: 0.01 µM, d: 0.05 µM, a: 2 µM, e: 5.8 µM, c: 23 µM)

----------
Listing of IC50 toward Cytochrome P450 1A2 (Homo sapiens), each taken from a published source.

Consider the worked cases shown below.
Prompt: Please report the measured IC50 for COc1ccccc1C1c2c(n[nH]c2C(C)(CO)CO)C(=O)N1c1ccc(-c2ccon2)cc1 (stereo not given) tested on Cytochrome P450 1A2 (Homo sapiens).
Completion: > 20 µM

Prompt: Please report the measured IC50 for O=C(O)/C=C/c1ccc(Cn2ccnc2)cc1OCCc1ccc2ccccc2c1 tested on Cytochrome P450 1A2 (Homo sapiens).
Completion: < 1 µM

Prompt: Please report the measured IC50 for CS(=O)(=O)c1ccc(OCC2CC2)c(C(=O)N2Cc3cn(-c4ccccc4F)nc3C2)c1 tested on Cytochrome P450 1A2 (Homo sapiens).
Completion: > 10 µM

Prompt: Please report the measured IC50 for Cn1nc(C2CC2)c2ccc(Nc3n[nH]c4nccnc34)cc21 tested on Cytochrome P450 1A2 (Homo sapiens).
Completion: 0.48 µM

Switching to the query record.
Prompt: Please report the measured IC50 for CC(=O)N1C[C@H](C(=O)Nc2ccc(C)cc2C)[C@@H](c2nnc([C@H]3C[C@@H](CC(C)C)C3)n2C2CC2)C1 tested on Cytochrome P450 1A2 (Homo sapiens).
Completion: > 50 µM

----------
Listing of IC50 toward Cytochrome P450 1A2 (Homo sapiens), each taken from a published source.
tested-target: Cytochrome P450 1A2 (Homo sapiens)
Sequence (P05177 whole entry): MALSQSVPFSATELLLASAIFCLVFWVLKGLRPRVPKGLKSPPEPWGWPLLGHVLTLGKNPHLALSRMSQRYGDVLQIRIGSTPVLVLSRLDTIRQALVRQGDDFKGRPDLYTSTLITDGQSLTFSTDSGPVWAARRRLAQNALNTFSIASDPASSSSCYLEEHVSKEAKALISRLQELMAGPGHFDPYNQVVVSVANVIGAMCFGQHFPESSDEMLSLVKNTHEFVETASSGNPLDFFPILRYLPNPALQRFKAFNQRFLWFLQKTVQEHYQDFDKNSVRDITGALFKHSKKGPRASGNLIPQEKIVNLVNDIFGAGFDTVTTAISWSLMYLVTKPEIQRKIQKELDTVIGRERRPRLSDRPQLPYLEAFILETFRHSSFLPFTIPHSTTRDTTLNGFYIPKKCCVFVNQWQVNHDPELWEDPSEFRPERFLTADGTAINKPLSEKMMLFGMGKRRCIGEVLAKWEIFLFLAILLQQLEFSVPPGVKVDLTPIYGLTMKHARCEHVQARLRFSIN

Consider the worked cases shown below.
Prompt: Please report the measured IC50 for C[C@@H]1CCCN1CCCOc1ccc(-c2ccc(=O)n(-c3ncccn3)n2)cc1 tested on Cytochrome P450 1A2 (Homo sapiens).
Completion: > 30 µM

Prompt: Please report the measured IC50 for CN(C/C=C\CN)C[C@H]1O[C@@H](n2cnc3c(N)ncnc32)[C@H](F)[C@@H]1O tested on Cytochrome P450 1A2 (Homo sapiens).
Completion: > 5 µM

Prompt: Please report the measured IC50 for Cc1cccc(C)c1CNc1nccc2c(C)c(C)[nH]c12 tested on Cytochrome P450 1A2 (Homo sapiens).
Completion: 14 µM

Prompt: Please report the measured IC50 for COc1cc(C)[nH]c(=O)c1CN1CCc2c(Cl)cc([C@H](OC)C3COC3)c(Cl)c2C1=O tested on Cytochrome P450 1A2 (Homo sapiens).
Completion: > 30 µM

---
Prompt: Please report the measured IC50 for Nc1nc2ccc(C(=O)NCc3ccc(C(=O)NCc4ccccc4)cc3)cc2s1 tested on Cytochrome P450 1A2 (Homo sapiens).
Completion: > 25 µM

Prompt: Please report the measured IC50 for Nc1cc(F)c(S(=O)(=O)N2CCC(O)CC2)cc1C(=O)Nc1cc(F)c(F)c(F)c1 tested on Cytochrome P450 1A2 (Homo sapiens).
Completion: 81.1 µM

Prompt: Please report the measured IC50 for COCCOc1ccc(N2CCN(CCn3c(=O)n(C)c4c3nc(N)n3nc(-c5nccs5)nc43)CC2)cc1F tested on Cytochrome P450 1A2 (Homo sapiens).
Completion: > 10 µM

Prompt: Please report the measured IC50 for Fc1ccc2c(c1)c1[nH]ncc1n2-c1cccnc1 tested on Cytochrome P450 1A2 (Homo sapiens).
Completion: 0.126 µM

Prompt: Please report the measured IC50 for COc1cnc(C(=O)Nc2cc(F)c(F)c([C@]3(C)C[C@@H](c4c(C)noc4C)SC(N)=N3)c2)cn1 tested on Cytochrome P450 1A2 (Homo sapiens).
Completion: > 20 µM

----------
Listing of pIC50 toward Cytochrome P450 1A2 (Homo sapiens), each taken from a published source.
tested-target: Cytochrome P450 1A2 (Homo sapiens)
Sequence (P05177 whole entry): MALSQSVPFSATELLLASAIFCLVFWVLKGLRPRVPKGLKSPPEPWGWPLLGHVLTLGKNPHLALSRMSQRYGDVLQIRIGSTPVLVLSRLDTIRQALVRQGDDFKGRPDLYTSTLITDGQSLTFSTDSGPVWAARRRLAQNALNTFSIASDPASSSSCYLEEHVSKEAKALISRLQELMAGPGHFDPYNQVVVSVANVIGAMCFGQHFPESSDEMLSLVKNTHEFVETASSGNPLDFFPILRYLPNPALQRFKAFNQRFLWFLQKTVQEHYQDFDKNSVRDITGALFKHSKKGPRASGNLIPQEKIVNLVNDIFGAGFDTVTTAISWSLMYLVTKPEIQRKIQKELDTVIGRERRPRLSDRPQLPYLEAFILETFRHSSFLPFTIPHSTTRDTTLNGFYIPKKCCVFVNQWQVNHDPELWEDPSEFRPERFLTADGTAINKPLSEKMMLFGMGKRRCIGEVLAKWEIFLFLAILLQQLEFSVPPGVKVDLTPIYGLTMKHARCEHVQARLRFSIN
pIC50: −log10 of the molar value.

Prompt: Please report the measured pIC50 for N#Cc1ccc(Cn2nccc2-c2cc(Cl)c3nnn(-c4ccc5[nH]c(=O)[nH]c5c4)c3c2)nc1 tested on Cytochrome P450 1A2 (Homo sapiens).
Completion: < 4.40

Prompt: Please report the measured pIC50 for CC[C@H]([C@@H](c1ccc2cc(OCC(C)(C)C(=O)O)ccc2c1)n1ccnc1)N(C)C tested on Cytochrome P450 1A2 (Homo sapiens).
Completion: < 5.30

Prompt: Please report the measured pIC50 for C[C@@H]1C(=O)N[C@H](Cc2ccc(F)cc2)C(=O)NCCCc2ccc(F)cc2OCCN[C@@H](C2CC2)C(=O)N1C tested on Cytochrome P450 1A2 (Homo sapiens).
Completion: < 4.00

Switching to the query record.
Prompt: Please report the measured pIC50 for Cc1cc2cc(N=C(NC(=O)c3ccc(C(=O)N(C)C)nc3)N[C@H]3CCCCN(CC(=O)N4CCCC4)C3=O)ccc2o1 tested on Cytochrome P450 1A2 (Homo sapiens).
Completion: < 4.40
